System: K562
Test: Cytotoxicity against human K562 cells after 48 hrs by trypan blue dye exclusion test
Format: functional, cell-based
Details: K562, 48 h
Readings of IC50 for the listed molecules
Dear colleague, please return just the value in µM, with no unit written.

INSERT INTO results (molecule, measured_on, property_measured, measured) VALUES
  ('O=C(CCC(c1ccccc1)c1ccccc1)N1CCC(n2c(=O)[nH]c3ccccc32)CC1', 'K562', 'IC50', 14),
  ('O=C(CI)N1CCC(n2c(=O)[nH]c3ccccc32)CC1', 'K562', 'IC50', 1.8),
  ('O=C(CCl)N1CCC(n2c(=O)[nH]c3ccccc32)CC1', 'K562', 'IC50', 7.3),
  ('O=C(CC=C(c1ccccc1)c1ccccc1)N1CCC(n2c(=O)[nH]c3ccccc32)CC1', 'K562', 'IC50', 13),
  ('O=C(Cc1ccc([N+](=O)[O-])cc1)N1CCC(n2c(=O)[nH]c3ccccc32)CC1', 'K562', 'IC50', 35),
  ('O=C(CBr)N1CCC(n2c(=O)[nH]c3ccccc32)CC1', 'K562', 'IC50', 2.4),
  ('O=C(CC=C(c1ccc(F)cc1)c1ccc(F)cc1)N1CCC(n2c(=O)[nH]c3ccccc32)CC1', 'K562', 'IC50', 18);

As a next step, examine the molecule that follows.
Quick note, IC50 for O=c1[nH]c2ccccc2n1C1CCN(CCCC(c2ccc(F)cc2)c2ccc(F)cc2)CC1 [PIMOZIDE] landed at 5
